- protocol: yeast display, Sf9 membrane polyspecificity reagent, FACS + sequencing; frameworks hold sequencing errors
property_name: polyreactivity (PSR sort gate)

Example entries begin here.
QVQLVESGGGLDQAGGSLPLSCAASGFTFGHYAMGWYRQAPGKERELVAAISSGDRTYYADSVKGRFTISRDNAKNTVYLQMNSLKPEDTAVYYCAADGIYTYEYWGQGTQVTVSS	low polyreactivity
QVQLVESGRGLVQAGGSLRLSCAASGITFNFYAKGWYRKAPGKERELVAAITQSGGSTYYADSVKGRFTISRDNAKNTVYLQMISLKPEDTAVYYWAAARTGHMYDLGQGTQVTVSS	high polyreactivity
QVQLVESGGGLFQAGGSLRLSCAASGSTFGTYAMGRYRPPPAKERELVAAISTGGSTYYADSVKGRFTISRDNAKNTVYLQMNSLKPEDTAVYYCAALADYVRRASDYWGQGTQVTVSS	low polyreactivity
QVQLVESGGGLVQAGGSLRLSCAASGRIFLWYAMGWYRQAPGKERELVAAIWRGGSTYYADSVKGRFTISRDNAKNTVYLLMNSLKPEDTAVYYCAAEDVYFGYDYWGQGTQVTVSS	low polyreactivity
QVQLVESGGGLGQAGGRLRLSCAASGIYYNAMGWYRQAPGNERELVAAITTGDRTNYADSVKGRFTISRDNAKNTVYLQMNSLKPEDTAVYYCNAVVERLSSTARDFAYDYWGQGTQVTVSS	low polyreactivity
QVQLVESGGGLVQAGGSLLLSCASSGFIFTKYTMGWYRLAPGKERELVAAITGRGTSTYADSVKGRFSMSRDNAKNTVYLQMNSLIPEDTAVYYCAAVGWFADFLFSDINGYYWGQGTQVTVSA	low polyreactivity

Query: Looking for the measured polyreactivity (PSR sort gate) of `QVQHVDSGGRLVQAGGRLRLSCAASGRIITYYARGWNRQAPGKERELVAAISGRGGGTYYADSVKGRFTISRDNAKNTVYLQMNSLKPADTAVYYCNAYYSRLRYDYWGQGTQVTVSS` , can you help?
Result: high polyreactivity

Query: Record: `QVQLVESGGGLVQAGGSLRLRCAASGRTFTAYTMGLYRQAPGKEREFVASISSGVTYADSVKGRFTISRDNAKITVYLQMNSLKPEDTAVYYCAARLWYVQGYVPYVHHRFDYWGQGTQVTVSS`
Result: low polyreactivity

Query: Record: `QVQLVESGGGLVQAGGSLRLSCAASGYISYYYAMGWYRQAPGKEREFVAGISWSGGSTYYADPVKGRFTISRDNAKNTVYLQMNSLKTEDTAVYYCAARLSRWWPPTRVHYTDRYYWGQGTQVTVSS`
Result: high polyreactivity

* * *

- protocol: yeast display, Sf9 membrane polyspecificity reagent, FACS + sequencing; frameworks hold sequencing errors
property_name: polyreactivity (PSR sort gate)

QVQLVESGRGLVQAGGSLRLSCAASGSIFGYYAMGWYRQAPGKERELVAAISRSGGSTYYADSVKGRFTISRDNAKNTVYLQMNSLKPEDTAVYYCAADDYPYGNYYWGQGTQVTVSS	high polyreactivity
QVQLVESGGGLVQAGGSLRLSCAAYGITFEVNAMGWYRQAPGKERELVAAINSSVASTYYADSVKGRFTISRDNAKNTVDLQMNSLKPEDTAVYYCAAQGKGGTEYGYGYWGQGTQVTVSS	low polyreactivity
QVQLVESGGGLVQAGGSLRLSCAASGSTVWFYAMGWYRQAPGKERELVAVISNSGSTYYADSVKGRFTISRDNAKNTVYLQMNSLKPEDTAVYYCNKDGGGDSYWYDYWGQGTQVTVSS	low polyreactivity
QVQLVESGGGLVQAGGSLRLSCAASGSTFVTNAMVWYRQAPGKEREFVAAIRWSAGNTYYADSVKGRFTISRDNAKNTVFLQMNSLKPEDTAVYYCAADIYEQRSTYYAEYYSWGQGTQVTVSS	low polyreactivity
QVQLVESGGGLVQAGGSLRLSCAASGFIFVVYDMGWYRQAPGKERELVAGIDTSGADTYYADSVKGRFTISRDNAKNTVYLQMNRLKPEDPAVYYCAAETITDDYYEYDYWGQGTQVTVSS	low polyreactivity

Query: Looking for the measured polyreactivity (PSR sort gate) of `QVQLVESGGGLVQAGGSLRLSCAASGIIIARNTMGWYRQAPGKERELVAAISTRGTTTYYADSVKGRFTISRDNAENTVYLQMNSLKPEDTAVYYCAAVRVHTDRYNYWGQGTQVTVSS` , can you help?
Result: high polyreactivity

* * *

- protocol: yeast display, Sf9 membrane polyspecificity reagent, FACS + sequencing; frameworks hold sequencing errors
property_name: polyreactivity (PSR sort gate)

QVQLVESGGGLVQAGGSLRFSCAASGSTFSYYAMGWYRQAPRKEREFVAAMSWNGGSTYYADSVKGRYTISRDNAKNTVYLHMNSLKPEDTEVYYCAADFKYGYSHGFRQRLYDYWGQGTQVTVSS	low polyreactivity
QVQLQDSGGGLVQAGGSLRLNCATSGTIFVLWYMGWYRQAPGKERELVATINDGANTYYADSVKGRFTINRDNAYSTVYLKMNSLKPEDTAVYYCAVYAIIVWGLGYWGQGTQVTVSS	high polyreactivity
QVQRVESGGGLFQAGGRLRLSCAATGSIFTPNAMGWYRQAPGKERELVAAISSSSDRTYYADSVKGRFTISRDKAKNTVYLQMNSLKPEDTAVYYCAAYAQKRYYWGQGTQVTVSS	high polyreactivity
QVQLVESGGGIVQAGGSLRLSCAASGITSYFNAMGWYRQAPGKERELVAITWNGGSTYYADSVKGRFTISRDNAMNTVYLQMNSLKPEDTAVYYCAARYRRYNRKYDYWGQGTQVTVSS	high polyreactivity
QVQLVESGGGLDQAGGSLRLSCAASGSIFEKYAMGWYRQAPGKERELVAGISRSGGSTYYADSVKGRFTISRDNAKNTVYLQMNSLKLEDTAFYFCAARYTRYGSFYGFGYWGQGTQVTVSS	high polyreactivity

Query: Looking for the measured polyreactivity (PSR sort gate) of `QVQLVESGGGLVQAGGSLRLSCPAYGYTILPNAMGWYRQAPGKEREFVAAISYSGGRTYYADSVKGRFTISRDNAKNTVYLQMNSLKPEDTAVYYCATELYGYRYDYWGQGTQVTVSS` , can you help?
Result: low polyreactivity

Query: Record: `QVQLVESGGGLVQAGGSLRLSCAASGSTFRRNAMGWYRQAPGKERELVAAITSTDSTYYADSVKGRFTISRDNAKNTVYLQMNSLKPEDTAVYYCAKGYCWGGQMGYWGQGTQVTVSS`
Result: low polyreactivity

Query: Record: `QVQLVESGGGLVQAGGSLRLSCAASGRTFYRYTMGWYRQAPGKERELVAAIDRRGGSTYYADSVKGRFTISRDNAKNTVYLQMNSLKPEDTAVYYCNAVTHYSFDYWGQGTQVTVSS`
Result: high polyreactivity

Query: Record: `QVQLVESGGGLVQAGGSLRLSCAASGSTFRYNARGWYRQAPGKERELVADIRRSGGSTYYADSVKGRFTISRDNAKNTVYLQMNSLKPEDTAVYYCNAAVSRLYYHSYSYRSYYYWGQGTQVTVSS`
Result: high polyreactivity

Query: Record: `QVQLVESGGGLVQAGGSLRLSCAASGRTIYYYAMGGYRQAPGKEREFVAAISWHGGSTYYADSVKGRFTISRDNAKNTVYLQMNSLKPEDTAVYYCAAERYDRVGFDYWGQGTQVTVSS`
Result: low polyreactivity

Query: Record: `QVQLVESGGGLVQAGGSLRLSCAASGRIFQDNAMGWYRQTPGKERELVAAISRRGGSTYYADSVKGRFTISRDNAKYTVYLQMNSMKPEDTAVYYCAAKWSVEEDYWGQGTQVTVSS`
Result: high polyreactivity

Query: Record: `QVQLVDSGGGLVQAGGSLRLSCAASGSTIVYYAKGWYRHAPGKERELVAVISDDGGTYYADSVKGRFTISRDNAKNTVYFQMNSLKPEDTAFYYCAKDYYGGAYYWYNDRSGDYWGQGTQVTVSS`
Result: low polyreactivity

* * *

- protocol: yeast display, Sf9 membrane polyspecificity reagent, FACS + sequencing; frameworks hold sequencing errors
property_name: polyreactivity (PSR sort gate)

Example entries begin here.
QDKLVDSGGGLVQAGGSLLLSCAASGFIFLNNAMGWYRQAPGKQRELVAAITWSGGSTYYADSVKGRFTISRDNAKNTVYLQMNSLKPVDTAVYYCAADGWLYYGVGFYSSRRDYYWGQGTQVTVSS	low polyreactivity
QVQLEESGGGLVQAGGSLRLSCAASGFNFWVYAMGWYRQAPGKERELVAAISYNGGRTYYADSVKGRFTISRDNAKNTVYLQMNSLKPEDTAVYYCASLPAPTGRGDYWGQGTQVTVSS	high polyreactivity
QVQLVESGGGLVQAGGSLRLSCAASGSTFYVNAMGWYRQAPGKERELVAAINSGGRTYYADSVKGRFTISRDNAKNTVYLQMNSLKPEDTAVYYCAAEVSYYLNEFDYWGQGTQVTVSS	low polyreactivity
QVQLVESGGGLVQAGGSLRLSCAASGRTFSVNAMGWYRQAPGKERELVAAITSGASTNYADSVKGRFTISRDNAKNTVYLQMNSLKPEDTAVYYCAADYLYHQTSRGKYYSWGQGTQVTVSS	low polyreactivity
QVQLVESGGGLVQAGGSLRLSSAASGFTFEENAMGWYRQAPGKERELVAAINWSGGNTYYADSVKGRFTISRDNAKNTVYLQMNSLKPEDTAVYYCAAVSTRYYYSVGPYYGYDYWVQGTQVTVSS	high polyreactivity

Query: Looking for the measured polyreactivity (PSR sort gate) of `QVQLVESGGGLVQAVGSLRLSCAASGRIFDTYVMGWYRQAPGKEREMVAAISGSGGSTYYADSVKGRFTISRDNAKNTVYLQMNSLKPEDTAVYYCSAARRYYAYRYDYWGQGTQVTVSS` , can you help?
Result: high polyreactivity

Query: Record: `QLQLVESGGGLVQAGGSLRLSCAASGSIFYGYAKGWYRQAPGTERELVAAINTSGGSTFYADSVKGRFTISRDNANNTVYLQMNSLKPEDTAVYYCAAERYRYRSTDTMGYWGQGTQVTVSS`
Result: low polyreactivity

Query: Record: `QVQLVESGGGLVQAGGSLRLSCAASGRIIYNYAMGWYRQAPGKERELVAAITRSGGSTYYADSVKGRFTISRDNAKNTVYLQMNSLKPEDTAVYYCNATRGFGPPYFYWGQGTQVTVSS`
Result: high polyreactivity

Query: Record: `QVQLVESGGGLVQAGGSLRLSCAASGFIFRYYAMGWYRQAPGKERELFAAISWSGGTTYYADSVKGRFTISRDNAKNTVYLQMNSLKPEDTAVYYCNAGYNGKRRDPVDYWGQGTQVTVSS`
Result: low polyreactivity

Query: Record: `QVQLVESGGGLVQAGGSLRLSCAASGSILLPYAMGRYRHAPGKERELVAAITYRGASTHYAASVKGRFTISRDNAKNTVYLQMNSLKQEDPAVYYCAARGWVYYASEMDYWGQGTQGTVSS`
Result: low polyreactivity

Query: Record: `QVQLVESGGGLVQAGGSLRLSCAASGSTIYTYVMGWYRPAPGKERELVAAISWSGSSTYYADSVKGRFTISRDNAKNTVYLQMNSLKPEDTAVYYCNAQYRRGWWGVEYGYWGQGTQVTVSS`
Result: low polyreactivity

Query: Record: `QVQLVESGGGLVQAGGILRLSCAAAGGTLYYYMGWYRQAPGKESEFVAAINIRGDSTYYADSVKGRFTISRDNAKNTVYLQMNSLKPEDTAVYYCAADLPRRSAHYYYWGQGTLVTVSS`
Result: low polyreactivity
